target-or-system: Inadl_3, Q8NI35
Sequence (Q8NI35 359-469): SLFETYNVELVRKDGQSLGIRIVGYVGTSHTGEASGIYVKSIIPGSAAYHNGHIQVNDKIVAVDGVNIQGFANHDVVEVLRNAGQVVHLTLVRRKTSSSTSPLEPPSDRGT
test-summary: holdup assay
Design: key: below the threshold = too weak to quantify, mostly under pKd 3.1 to 4
conditions-used: plain residues with an end cap or a label only (N-terminal biotin on a linker: ado-ado)
measured-parameter: pKd

The examples below pair each entry with its known result.
In [3]: df
Out[3]:
                         binder       value_observed
0  RFQQRMQTHV [KIRREL1, Q96J84]  below the threshold
1    DPAESMESLV [PTPRG, P23470]                 4.08
2      PYPTADHMLA [JUP, P14923]  below the threshold
3     DRIQSCLSDA [SBF1, O95248]  below the threshold
4   TGLWKHETTV [ADGRA3, Q8IWK6]                 3.86

Given item ARGPPRESEV [FAM110D, Q8TAY7] , the value recorded as its pKd is below the threshold

Given item QRPYRRGSEI [KCNJ18, B7U540] , the value recorded as its pKd is below the threshold

Given item DDASLPVSDV [PLEKHA1, Q9HB21] , the value recorded as its pKd is below the threshold
